So I've got a bunch of compounds here, and I need their % Change in Purity of Salt values.
Assay Explanation: Chemical stability of salt forms (change in purity by HPLC upon storage)
Format: physicochemical
Measurement Context: 40° C. and 75% relative humidity, 7 days, heat sealed polyethylene bags, HPLC Method D
Numbers only, in %.

Worked examples follow.
COc1ccncc1CN1CCC(N(CCCCCCCN2CC[C@@H](C(C(N)=O)(c3ccccc3)c3ccccc3)C2)C(C)C)CC1.O=C(O)C(O)C(O)C(=O)O [Example 11B] ... 0.8
COc1ccncc1CN1CCC(N(CCCCCCCN2CC[C@@H](C(C(N)=O)(c3ccccc3)c3ccccc3)C2)C(C)C)CC1.O=S(=O)(O)c1cccc2c(S(=O)(=O)O)cccc12 [Example 7] ... 0.4

Give measured % Change in Purity of Salt for every item shown.
1. COc1ccncc1CN1CCC(N(CCCCCCCN2CC[C@@H](C(C(N)=O)(c3ccccc3)c3ccccc3)C2)C(C)C)CC1.O=S(=O)(O)O [Example 11A]
2. COc1ccncc1CN1CCC(N(CCCCCCCN2CC[C@@H](C(C(N)=O)(c3ccccc3)c3ccccc3)C2)C(C)C)CC1.O=C(O)c1ccccc1O.O=C(O)c1ccccc1O.O=C(O)c1ccccc1O [Example 11E]
3. COc1ccncc1CN1CCC(N(CCCCCCCN2CC[C@@H](C(C(N)=O)(c3ccccc3)c3ccccc3)C2)C(C)C)CC1 [Example 6]

1: 0.8; 2: 2.7; 3: 1.2

Looking for the measured % Change in Purity of Salt of COc1ccncc1CN1CCC(N(CCCCCCCN2CC[C@@H](C(C(N)=O)(c3ccccc3)c3ccccc3)C2)C(C)C)CC1.CS(=O)(=O)O.CS(=O)(=O)O [Example 9] , can you help? 0.9

###

Assay Explanation: Chemical stability of salt forms (change in purity by HPLC upon storage)
Format: physicochemical
Measurement Context: 40° C. and 75% relative humidity, 7 days, HPLC Method D
Protocol: The chemical stability of each salt form was evaluated by determining the change in purity of the sample upon storage of the salt form at 40° C. […] Approximately 50-100 mg of the salt form was then placed in two heat sealed low density polyethylene bags. […] After 7 days, the bags were removed and the contents were analyzed by HPLC.
For each record, write down the corresponding % Change in Impurity B.
Answers are plain numbers, in %.

// solved cases for % Change in Impurity B follow
COc1ccncc1CN1CCC(N(CCCCCCCN2CC[C@@H](C(C(N)=O)(c3ccccc3)c3ccccc3)C2)C(C)C)CC1.O=C(O)c1cc(O)ccc1O.O=C(O)c1cc(O)ccc1O [Example 11F] ... 0.23
COc1ccncc1CN1CCC(N(CCCCCCCN2CC[C@@H](C(C(N)=O)(c3ccccc3)c3ccccc3)C2)C(C)C)CC1.O=C(O)c1cc(=O)[nH]c(=O)[nH]1.O=C(O)c1cc(=O)[nH]c(=O)[nH]1 [Example 11C] ... 0.49
COc1ccncc1CN1CCC(N(CCCCCCCN2CC[C@@H](C(C(N)=O)(c3ccccc3)c3ccccc3)C2)C(C)C)CC1.O=S(=O)(O)O [Example 11A] ... 0.11
COc1ccncc1CN1CCC(N(CCCCCCCN2CC[C@@H](C(C(N)=O)(c3ccccc3)c3ccccc3)C2)C(C)C)CC1.O=C(O)c1ccccc1O.O=C(O)c1ccccc1O [Example 11D] ... 0.19
COc1ccncc1CN1CCC(N(CCCCCCCN2CC[C@@H](C(C(N)=O)(c3ccccc3)c3ccccc3)C2)C(C)C)CC1.Cl.Cl [Example 11G] ... 0.79

Batch: % Change in Impurity B for all items listed.
1. COc1ccncc1CN1CCC(N(CCCCCCCN2CC[C@@H](C(C(N)=O)(c3ccccc3)c3ccccc3)C2)C(C)C)CC1.O=C(O)c1ccccc1O.O=C(O)c1ccccc1O.O=C(O)c1ccccc1O [Example 11E]
2. COc1ccncc1CN1CCC(N(CCCCCCCN2CC[C@@H](C(C(N)=O)(c3ccccc3)c3ccccc3)C2)C(C)C)CC1.O=C(O)C(O)C(O)C(=O)O [Example 11B]
3. COc1ccncc1CN1CCC(N(CCCCCCCN2CC[C@@H](C(C(N)=O)(c3ccccc3)c3ccccc3)C2)C(C)C)CC1.CS(=O)(=O)O.CS(=O)(=O)O.CS(=O)(=O)O [Example 10]

1.06
0.35
6.59
